Target: carbonic anhydrase XII (human)
Experiment: Inhibition of human recombinant CA12 catalytic domain by stopped-flow CO2 hydration method
# note: exactly 20 nM is not below, so it is false (0); use true (1) for Ki strictly under it

Problem: Strictly below 20 nM in Ki? CCCOc1cc2oc(=O)ccc2cc1C(C)=O [6-acetyl-7-propoxy-2H-chromen-2-one]
Result: false (0)

Problem: Strictly below 20 nM in Ki? CCCOc1ccc2ccc(=O)oc2c1C(C)=O [8-acetyl-7-propoxy-2H-chromen-2-one]
Result: true (1)

Problem: Strictly below 20 nM in Ki? CCOc1ccc2ccc(=O)oc2c1C(C)=O [8-acetyl-7-ethoxy-2H-chromen-2-one]
Result: true (1)

Problem: Strictly below 20 nM in Ki? CCOc1ccc2ccc(=O)oc2c1C(=O)CC [7-ethoxy-8-propionyl-2H-chromen-2-one]
Result: false (0)

Problem: Strictly below 20 nM in Ki? CC(=O)c1c(OCCC23CC4CC(CC(C4)C2)C3)ccc2ccc(=O)oc12
Result: false (0)

Problem: Strictly below 20 nM in Ki? CC(=O)c1c(OCc2ccccc2)ccc2ccc(=O)oc12 [8-acetyl-7-(benzyloxy)-2H-chromen-2-one]
Result: false (0)
